Origin of values: patent US20230212285A1

# system-name: T1, cynomolgus monkey C-KIT-Fc protein (cynomolgus monkey)
# T1 construct: also called cyno C-KIT-Fc; cyno C-KIT
# measurement-protocol: HTRF competition vs terbium-labelled h37M IgG1
quantity-kind: IC50 (µg/mL)
Supply the numeric figure in µg/mL, leaving out any unit text.

So, MH5.34 (antibody, human IgG1, V domains shown, graft frameworks; substitutions derived; human IgG1; also called C-KIT-MH5.34) VH: QVQLVQSGAEVKKPGASVKVSCKASGYTFTNYYMNWVRQAPGQGLEWMGRIYPASGNTYYAQKFQGRVTMTRDTSTSTVYMELSSLRSEDTAVYYCARGVWYFDSWGQGTLVTVSS VL: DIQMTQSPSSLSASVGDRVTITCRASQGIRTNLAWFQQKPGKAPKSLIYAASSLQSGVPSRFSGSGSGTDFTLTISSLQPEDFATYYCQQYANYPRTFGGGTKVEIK ? Its IC50 was 0.532

So, MH5.35 (antibody, human IgG1, V domains shown, graft frameworks; substitutions derived; human IgG1; also called C-KIT-MH5.35) VH: QVQLVQSGAEVKKPGASVKVSCKASGYTFTNYYMNWVRQAPGQGLEWMGRIYPASGNTYYAQKFQGRVTMTRDTSTSTVYMELSSLRSEDTAVYYCARGVWYFDTWGQGTLVTVSS VL: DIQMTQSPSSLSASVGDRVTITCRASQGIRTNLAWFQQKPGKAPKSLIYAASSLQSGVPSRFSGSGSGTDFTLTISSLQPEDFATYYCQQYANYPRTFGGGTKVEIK ? Its IC50 was 0.785

So, MH5 IgG1 (antibody, V domains shown, human IgG1; also called C-KIT-MH5) VH: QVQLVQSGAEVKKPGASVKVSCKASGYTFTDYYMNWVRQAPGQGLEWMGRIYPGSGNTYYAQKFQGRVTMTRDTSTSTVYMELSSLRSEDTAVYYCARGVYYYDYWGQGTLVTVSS VL: DIQMTQSPSSLSASVGDRVTITCRASQGIRTNLAWFQQKPGKAPKSLIYSASSLQSGVPSRFSGSGSGTDFTLTISSLQPEDFATYYCQQYANYPRTFGGGTKVEIK ? Its IC50 was 0.058

So, MH5.2 (antibody, human IgG1, V domains shown, graft frameworks; substitutions derived; human IgG1; also called C-KIT-MH5.2) VH: QVQLVQSGAEVKKPGASVKVSCKASGYTFTDFYMNWVRQAPGQGLEWMGRIYPGTGNTYYAQKFQGRVTMTRDTSTSTVYMELSSLRSEDTAVYYCARGVWYYDYWGQGTLVTVSS VL: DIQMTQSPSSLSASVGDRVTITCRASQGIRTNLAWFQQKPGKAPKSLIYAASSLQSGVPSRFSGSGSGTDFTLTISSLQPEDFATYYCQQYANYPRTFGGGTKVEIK ? Its IC50 was 0.254

So, MH5.1 (antibody, human IgG1, V domains shown, graft frameworks; substitutions derived; human IgG1; also called C-KIT-MH5.1) VH: QVQLVQSGAEVKKPGASVKVSCKASGYTFTNYYMNWVRQAPGQGLEWMGRIYPGTGNTYYAQKFQGRVTMTRDTSTSTVYMELSSLRSEDTAVYYCARGVWYYDYWGQGTLVTVSS VL: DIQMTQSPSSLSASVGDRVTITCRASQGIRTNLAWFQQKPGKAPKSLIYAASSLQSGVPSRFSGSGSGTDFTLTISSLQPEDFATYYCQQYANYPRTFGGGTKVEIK ? Its IC50 was 0.633

So, MH5.23 (antibody, human IgG1, V domains shown, graft frameworks; substitutions derived; human IgG1; also called C-KIT-MH5.23) VH: QVQLVQSGAEVKKPGASVKVSCKASGYTFTDFYMNWVRQAPGQGLEWMGRIYPASGNTYYAQKFQGRVTMTRDTSTSTVYMELSSLRSEDTAVYYCARGVWYFDSWGQGTLVTVSS VL: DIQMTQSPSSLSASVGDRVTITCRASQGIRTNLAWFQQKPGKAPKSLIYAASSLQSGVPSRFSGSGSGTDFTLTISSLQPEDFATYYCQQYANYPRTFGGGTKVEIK ? Its IC50 was 3.26

So, MH5.24 (antibody, human IgG1, V domains shown, graft frameworks; substitutions derived; human IgG1; also called C-KIT-MH5.24) VH: QVQLVQSGAEVKKPGASVKVSCKASGYTFTDFYMNWVRQAPGQGLEWMGRIYPASGNTYYAQKFQGRVTMTRDTSTSTVYMELSSLRSEDTAVYYCARGVWYFDTWGQGTLVTVSS VL: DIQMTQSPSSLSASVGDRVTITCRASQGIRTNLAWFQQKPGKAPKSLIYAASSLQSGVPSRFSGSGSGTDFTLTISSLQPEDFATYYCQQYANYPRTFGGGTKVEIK ? Its IC50 was 2.74

So, MH5.22 (antibody, human IgG1, V domains shown, graft frameworks; substitutions derived; human IgG1; also called C-KIT-MH5.22) VH: QVQLVQSGAEVKKPGASVKVSCKASGYTFTDFYMNWVRQAPGQGLEWMGRIYPASGNTYYAQKFQGRVTMTRDTSTSTVYMELSSLRSEDTAVYYCARGVWYYDYWGQGTLVTVSS VL: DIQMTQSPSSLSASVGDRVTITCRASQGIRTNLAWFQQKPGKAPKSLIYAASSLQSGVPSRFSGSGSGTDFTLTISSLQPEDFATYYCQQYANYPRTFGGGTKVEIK ? Its IC50 was 0.164
